Molecular target: hP2Y12 (Homo sapiens, UniProt Q9H244)
Sequence (Q9H244 whole entry): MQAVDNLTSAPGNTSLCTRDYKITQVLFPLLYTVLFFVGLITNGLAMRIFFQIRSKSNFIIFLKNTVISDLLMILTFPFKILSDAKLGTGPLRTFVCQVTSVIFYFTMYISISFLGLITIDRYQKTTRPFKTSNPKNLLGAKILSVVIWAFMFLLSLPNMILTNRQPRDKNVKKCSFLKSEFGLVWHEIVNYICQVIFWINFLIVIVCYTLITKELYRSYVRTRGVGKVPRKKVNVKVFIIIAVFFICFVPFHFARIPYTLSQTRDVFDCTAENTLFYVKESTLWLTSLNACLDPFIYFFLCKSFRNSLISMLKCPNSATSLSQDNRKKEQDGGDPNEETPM
Test: Two-electrode voltage-clamp of Xenopus oocytes expressing hP2Y12 with Kir3.1 and 3.4: inhibition of ADP-stimulated potassium currents
Settings: oocytes expressing rat or human P2Y12 (FIG. 2B: hP2Y12); ADP 500 nM; read-out: IC50, block of ADP-induced K+ currents
OBSERVABLE: pIC50
Would you please state pIC50, meaning minus log10 of the concentration in mol/L, as a bare number?

Exercise: For the compound CSc1nc(N)c2ncn([C@@H]3O[C@H](COP(=O)(O)O)[C@@H](O)[C@H]3O)c2n1 [2MeSAMP] , give its reported pIC50.
Solution: 5.85

---

The entries below are paired with their reported pEC50.
Molecular target: P2Y12 receptor (UniProt Q9H244)
Construct: EC50, potassium currents in oocytes; other: Xenopus oocytes with Kir3.1 and 3.4; currents normalized to 10 μM ADP; Hill; potency compared to ADP
Assay: Two-electrode voltage-clamp of Xenopus oocytes expressing P2Y12 with Kir3.1 and 3.4: agonist-stimulated potassium currents
Details: Xenopus oocytes with Kir3.1 and 3.4; currents normalized to 10 μM ADP; Hill fit; FIG. 1C
// pEC50 here means minus log10 of the molar concentration (mol/L)

COMPOUND: Nc1ncnc2c1ncn2[C@@H]1O[C@H](COP(=O)(O)OP(=O)(O)O)[C@@H](O)[C@H]1O [ADP, adenosine 5′-diphosphate]
OBSERVABLE: pEC50
OBSERVED VALUE: 6.52

Exercise: Provide the reported pEC50 (system: P2Y12 receptor (UniProt Q9H244)) for CSc1nc(N)c2ncn([C@@H]3O[C@H](COP(=O)(O)OP(=O)(O)O)[C@@H](O)[C@H]3O)c2n1
Solution: 9.05
